Molecular target: F508delCFTR (Homo sapiens, UniProt P13569, DEL508-508)
Construct: expressed in transfected cells; host or cells: CFBE41o- human lung-derived epithelial cells (CFBE4lo-F508delCFTR-HRP), doxycycline-inducible
Sequence (P13569 with tags, fused parts or gaps DEL508-508): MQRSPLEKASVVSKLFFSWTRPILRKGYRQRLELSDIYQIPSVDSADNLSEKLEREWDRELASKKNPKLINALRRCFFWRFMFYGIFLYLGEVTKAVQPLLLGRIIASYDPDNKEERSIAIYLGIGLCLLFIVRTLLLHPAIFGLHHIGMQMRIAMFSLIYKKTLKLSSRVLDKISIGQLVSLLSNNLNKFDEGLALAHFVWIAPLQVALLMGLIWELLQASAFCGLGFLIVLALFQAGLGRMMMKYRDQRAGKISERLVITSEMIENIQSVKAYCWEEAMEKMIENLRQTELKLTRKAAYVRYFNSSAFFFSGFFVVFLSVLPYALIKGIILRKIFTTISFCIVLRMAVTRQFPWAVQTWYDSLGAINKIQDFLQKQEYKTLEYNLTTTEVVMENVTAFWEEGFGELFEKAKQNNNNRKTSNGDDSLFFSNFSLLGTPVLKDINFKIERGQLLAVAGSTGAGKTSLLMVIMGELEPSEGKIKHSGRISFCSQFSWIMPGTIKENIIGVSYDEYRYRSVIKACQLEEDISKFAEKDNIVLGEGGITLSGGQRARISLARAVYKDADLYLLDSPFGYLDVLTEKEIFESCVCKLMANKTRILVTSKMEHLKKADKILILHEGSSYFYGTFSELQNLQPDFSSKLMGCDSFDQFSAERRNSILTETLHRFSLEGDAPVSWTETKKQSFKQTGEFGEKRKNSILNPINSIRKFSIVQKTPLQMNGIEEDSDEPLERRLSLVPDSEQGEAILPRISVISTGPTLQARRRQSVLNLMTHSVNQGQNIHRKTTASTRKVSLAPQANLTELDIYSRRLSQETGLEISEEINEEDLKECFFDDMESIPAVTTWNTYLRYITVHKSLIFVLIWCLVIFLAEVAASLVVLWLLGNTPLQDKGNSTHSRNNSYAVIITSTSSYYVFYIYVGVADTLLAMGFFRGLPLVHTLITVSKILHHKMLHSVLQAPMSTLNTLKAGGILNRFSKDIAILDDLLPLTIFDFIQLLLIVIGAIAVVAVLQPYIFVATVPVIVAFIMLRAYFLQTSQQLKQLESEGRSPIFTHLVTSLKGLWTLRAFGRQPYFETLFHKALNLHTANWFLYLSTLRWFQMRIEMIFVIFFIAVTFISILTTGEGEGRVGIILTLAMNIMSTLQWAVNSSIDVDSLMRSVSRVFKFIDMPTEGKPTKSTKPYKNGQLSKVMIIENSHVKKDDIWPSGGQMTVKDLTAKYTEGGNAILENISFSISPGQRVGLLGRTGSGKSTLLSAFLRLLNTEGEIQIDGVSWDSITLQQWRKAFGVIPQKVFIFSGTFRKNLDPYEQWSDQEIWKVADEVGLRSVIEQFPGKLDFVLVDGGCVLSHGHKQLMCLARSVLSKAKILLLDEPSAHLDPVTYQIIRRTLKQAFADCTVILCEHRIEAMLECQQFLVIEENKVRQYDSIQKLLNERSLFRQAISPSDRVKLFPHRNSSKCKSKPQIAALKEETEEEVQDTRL
Experiment: Cell Surface Expression-Horse Radish Peroxidase (CSE-HRP) Assay;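 for Maximum % activity (without co-corrector): percent of the 2 µM on-plate positive control corrector response above DMSO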
Format: cell-based
Details: without co-corrector; maximum at any tested concentration, normalized to on-plate positive control; read-out: Maximum % activity (without co-corrector)
Known Emax of a selection of molecules

MOLECULE: Cc1cc(C(F)(F)F)cc(N[C@@H]2[C@@H](C(C)(C)C)[C@H](C(=O)O)N(C(=O)C3CCC4(CC3)CC4)[C@@H]2c2ccccc2)n1 (racemic)
Emax: < 100%
//
MOLECULE: COc1ccc(C(C)(C)C)cc1CN[C@H]1[C@H](C(C)(C)C)[C@@H](C(=O)O)N(C(=O)CN2CCCCCC2)[C@H]1c1ccccc1
Emax: > 200%
//
MOLECULE: COc1ccc(C(C)(C)C)cc1CN[C@H]1[C@H](C(C)(C)C)[C@@H](C(=O)O)N(C(=O)OC(C)C)[C@H]1c1ccccc1F
Emax: > 200%
//
MOLECULE: CC(C)(C)[C@H]1[C@H](NCC2(c3cccc(Cl)c3)CCOCC2)[C@H](c2ccccc2)N(C(=O)C2CCCCC2)[C@@H]1C(=O)O
Emax: < 100%
//
MOLECULE: COc1cc(C(F)(F)F)cc(N[C@@H]2[C@@H](C(C)(C)C)[C@H](C(=O)O)N(C(=O)OC(C)C)[C@@H]2c2ccccc2)n1 (racemic)
Emax: < 100%
//
MOLECULE: COc1ccc(C(F)(F)F)cc1CN[C@H]1[C@H](C(C)(C)C)[C@@H](C(=O)O)N(C(=O)OC(C)C)[C@H]1c1ccccc1C(C)C
Emax: > 200%
//
MOLECULE: COc1ncc(C(F)(F)F)cc1CN[C@H]1[C@H](C(C)(C)C)[C@@H](C(=O)O)N(C(=O)[C@H]2CCCCO2)[C@H]1c1ccccc1C(C)C
Emax: > 200%
//
MOLECULE: COc1ccc(C(C)(C)C)cc1CN[C@H]1[C@H](C(C)(C)C)[C@@H](C(=O)O)N(C(=O)C2Cc3ccccc3O2)[C@H]1c1cccnc1N(C)C (single isomer, unassigned)
Emax: 100 to 200%
//
MOLECULE: COc1ccc(C(C)(C)C)cc1CN[C@H]1[C@H](C(C)(C)C)[C@@H](C(=O)O)N(C(=O)[C@@H](C)Oc2ccccc2)[C@H]1c1ccccc1
Emax: > 200%
//
MOLECULE: COc1ccc(C(C)(C)C)cc1CN[C@H]1[C@H](C(C)(C)C)[C@@H](C(=O)O)N(C(=O)C2CCCCC2)[C@H]1c1cccnc1OC(F)F
Emax: 100 to 200%
//
MOLECULE: COc1ncc(C(F)(F)F)cc1CN[C@H]1[C@H](C(C)(C)C)[C@@H](C(=O)O)N(C(=O)[C@@H]2CCCO2)[C@H]1c1ccccc1C(C)C
Emax: > 200%
//
MOLECULE: COc1ncc(C2CCC2)cc1CN[C@H]1[C@H](C(C)(C)C)[C@@H](C(=O)O)N(C(=O)[C@@H]2CCCC(F)(F)C2)[C@H]1c1ccccc1
Emax: > 200%

###

Biological target: F508delCFTR (Homo sapiens, UniProt P13569, DEL508-508)
Construct: expressed in transfected cells; host or cells: CFBE41o- human lung-derived epithelial cells (CFBE4lo-F508delCFTR-HRP), doxycycline-inducible
Assay: Cell Surface Expression-Horse Radish Peroxidase (CSE-HRP) Assay;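 for Maximum % activity (without co-corrector): percent of the 2 µM on-plate positive control corrector response above DMSO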
Type: cell-based
Details: without co-corrector; maximum at any tested concentration, normalized to on-plate positive control; read-out: Maximum % activity (without co-corrector)

COMPOUND: Cc1cc(C(F)(F)F)cc(N[C@H]2[C@@H](c3ccccc3)N(C(=O)C3CCCCC3)[C@@H](C(=O)O)C23CC3)n1 (racemic)
Emax: < 100%

COMPOUND: COc1ccc(C(C)(C)C)cc1CN[C@H]1[C@H](C(C)(C)C)[C@@H](C(=O)O)N(C(=O)[C@@H]2CCCO2)[C@H]1c1ccccc1C1CC1
Emax: > 200%

COMPOUND: COc1ncc(C(F)(F)F)cc1CN[C@H]1[C@H](C(C)(C)C)[C@@H](C(=O)O)N(C(=O)[C@@H]2CCCCO2)[C@H]1c1ccccc1
Emax: 100 to 200%

COMPOUND: COc1ccc(-c2ccccc2)cc1CN[C@H]1[C@H](C(C)(C)C)[C@@H](C(=O)O)N(C(=O)C2CCCCC2)[C@H]1c1ccccc1
Emax: > 200%

###

Target: F508delCFTR (Homo sapiens, UniProt P13569, DEL508-508)
Construct: expressed in transfected cells; host or cells: CFBE41o- human lung-derived epithelial cells (CFBE4lo-F508delCFTR-HRP), doxycycline-inducible
Assay: Cell Surface Expression-Horse Radish Peroxidase (CSE-HRP) Assay;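 for Maximum % activity (with co-corrector): co-corrector and positive control are both the same reference corrector at 2 µM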
Type: cell-based
Settings: CSE-HRP; with co-corrector (2 μM); maximum at any tested concentration, normalized to on-plate positive control

COMPOUND: COc1ccc(C(C)(C)C)cc1CN[C@H]1[C@H](C(C)(C)C)[C@@H](C(=O)O)N(C(=O)Cc2cccc(F)c2F)[C@H]1c1ccccc1
Maximum % activity (with co-corrector): +++ (≥350)
--
COMPOUND: COc1ccc(C(C)(C)C)cc1CN[C@H]1[C@H](C(C)(C)C)[C@@H](C(=O)O)N(C(=O)C(C)n2cc(Cl)c(C)n2)[C@H]1c1ccccc1 (single isomer, unassigned) [III-182]
Maximum % activity (with co-corrector): +++ (≥350)
--
COMPOUND: COc1cc(Cl)ccc1CN[C@@H]1[C@@H](C(C)(C)C)[C@H](C(=O)O)N(C(=O)C2CCCOC2)[C@@H]1c1ccccc1N(C)C (mixture of isomers)
Maximum % activity (with co-corrector): +++ (≥350)
--
COMPOUND: COc1ccc(C(F)(F)F)cc1CN[C@H]1[C@H](C(C)(C)C)[C@@H](C(=O)O)N(C(=O)[C@@H]2CCCO2)[C@H]1c1cccnc1C1CC1
Maximum % activity (with co-corrector): +++ (≥350)
--
COMPOUND: COc1ncc(F)cc1CN[C@@H]1[C@@H](C(C)(C)C)[C@H](C(=O)O)N(C(=O)C2CCCCC2)[C@@H]1c1ccccc1 (racemic)
Maximum % activity (with co-corrector): +++ (≥350)
--
COMPOUND: COc1ccc(C(C)(C)C)cc1CN[C@H]1[C@H](C(C)(C)C)[C@@H](C(=O)O)N(C(=O)[C@H](C)OC)[C@H]1c1ccccc1
Maximum % activity (with co-corrector): +++ (≥350)

###

Known Emax of a selection of molecules
Molecular target: F508delCFTR (Homo sapiens, UniProt P13569, DEL508-508)
Construct: expressed in transfected cells; host or cells: CFBE41o- human lung-derived epithelial cells (CFBE4lo-F508delCFTR-HRP), doxycycline-inducible
Assay: Cell Surface Expression-Horse Radish Peroxidase (CSE-HRP) Assay;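 for Maximum % activity (without co-corrector): percent of the 2 µM on-plate positive control corrector response above DMSO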
Assay type: cell-based
Settings: CSE-HRP; without co-corrector; maximum at any tested concentration, normalized to on-plate positive control; read-out: Maximum % activity (without co-corrector)

MOLECULE: COc1cc(C(F)(F)F)ccc1CN[C@H]1[C@H](C(C)(C)C)[C@@H](C(=O)O)N(C(=O)C2CCCC(F)(F)C2)[C@H]1c1cccnc1OC (relative stereo)
TARGET_OR_SYSTEM: F508delCFTR (Homo sapiens, UniProt P13569, DEL508-508)
Emax: 100 to 200%
--
MOLECULE: COc1cc(Cl)ccc1CN[C@@H]1[C@@H](C(C)(C)C)[C@H](C(=O)O)N(C(=O)OC(C)C)[C@@H]1c1ccccc1 (racemic)
TARGET_OR_SYSTEM: F508delCFTR (Homo sapiens, UniProt P13569, DEL508-508)
Emax: > 200%
--
MOLECULE: COc1ccc(C(C)(C)C)cc1CN[C@H]1[C@H](C(C)(C)C)[C@@H](C(=O)O)N(C(=O)c2onc3ccccc23)[C@H]1c1ccccc1
TARGET_OR_SYSTEM: F508delCFTR (Homo sapiens, UniProt P13569, DEL508-508)
Emax: 100 to 200%
--
MOLECULE: CC(C)(C)[C@@H]1[C@@H](NCc2cc(Cl)ccc2OC(F)(F)F)[C@@H](c2ccccc2)N(C(=O)C2CCCCC2)[C@H]1C(=O)O (racemic)
TARGET_OR_SYSTEM: F508delCFTR (Homo sapiens, UniProt P13569, DEL508-508)
Emax: < 100%
--
MOLECULE: Cc1c(N[C@H]2[C@H](C(C)(C)C)[C@@H](C(=O)O)N(C(=O)C3CCCCC3)[C@H]2c2ccccc2)c(Cl)nc2ccc(F)cc12
TARGET_OR_SYSTEM: F508delCFTR (Homo sapiens, UniProt P13569, DEL508-508)
Emax: 100 to 200%
